Tested on: UACC-257 melanoma
Assay: NCI tumour cell line growth inhibition, 48 h; in the data active means GI50 below about 0.43 µM; inactive means the rest
Possible outcomes: 1 (yes) (active), 0 (no) (inactive)

>>> df
                                    molecule  classification
 0                 CCOC(=O)Nc1nc2ccccc2[nH]1          0 (no)
 1     NCCCCCNc1noc(Cc2c[nH]c3cc(Br)ccc23)n1          0 (no)
 2  CCCCCCCCCC[C@@H](O)[C@@H]1CC[C@@H]([C@@H]2CC[C@@H]([C@@H](O)CCCCCCCCCC[C@H](O)CC3=CC(C)OC3=O)O2)O1 (stereo partly drawn)         1 (yes)
 3  CCCOc1cc2ccccc2cc1C(=O)Nc1nc(NC)c2c(ccc3nccc32)[nH]1          0 (no)
 4  CC(C)(C)c1cc(C(=O)Nc2ccc(C(=O)NCCN)cc2)cc(C(C)(C)C)c1          0 (no)
 5  CCOC(=O)C(Cc1c[nH]c2cc(N(CCO)CCO)ccc12)(NC(C)=O)C(=O)OCC          0 (no)
 6  Cc1ccc(Nc2cc(Cl)c([N+](=O)[O-])cc2[N+](=O)[O-])cc1          0 (no)
 7  COc1ccc(C(C)c2cc(OC)c(OC)c(OC)c2)cc1 (stereo not drawn)          0 (no)
 8  Cc1c(Cl)c(=O)oc2cc(OC/C=C3\CCC(=O)O3)ccc12          0 (no)
 9  C/C=C/C/C=C/[C@H](C)C[C@H](O)[C@@H]1C[C@@H]2O[C@H]2/C=C/[C@@H]2OC(C)(C)O[C@H]2/C=C/C[C@H](C)CC(=O)O1          0 (no)
10  COc1cccc(/C=C/c2nc3c(cnn3-c3ccccc3)c(=O)[nH]2)c1          0 (no)
11  CNC(=O)c1cc(Oc2cccc3nc(NC(=O)Nc4cc(C(F)(F)F)cc(C(F)(F)F)c4)ccc23)ccn1          0 (no)
12  Nc1ccccc1C#C/C=C\C#CC#C/C=C\C#Cc1ccccc1N          0 (no)
13  O=C(Nc1cccc(-n2cc(-c3ccncc3)c(-c3ccc(O)c(Cl)c3)n2)c1)c1ccc2c(c1)OCCO2          0 (no)
14  [N-]=[N+]=NCCCn1c2c(c3ccc([N+](=O)[O-])cc3c1=O)C(=O)c1cc3c(cc1-2)OCO3          0 (no)
15  O=C(NCCc1ccccc1)Nc1ccc2cc3ccc(NC(=O)NCCc4ccccc4)cc3nc2c1          0 (no)
16  CN(C)C(=O)OCc1nc2c(N3CCOCC3)nc(-c3ccccc3)nc2n1C          0 (no)
17  O=S(=O)(NCCNc1nccc(-c2c(-c3ccc(F)c(O)c3)nc3sccn23)n1)c1ccc(Cl)cc1          0 (no)
